observed property: melting point

Illustrative cases are given below, each with its answer.
| molecule | melting point |
| --- | --- |
| CC(=O)c1nc(-c2ccncc2C)[nH]c1C | 185 to 187 °C |
| CC(C)(C)OC(=O)Nc1ccc(-c2ccoc2)cc1[N+](=O)[O-] | 105 to 110 °C |
| O=C(O)C1=Cc2ccc(Cl)cc2OC1C(F)(F)F (stereo unspecified) | 175 to 178 °C |
| CC(C)(O)Cn1c(CONS(C)(=O)=O)nc2c(N)nc3ccccc3c21 | 232 to 234 °C |
| O=C(C=Cc1ccc(N2CCCC2)cc1)c1ccc2c(c1)CCCC2 | 167 to 169 °C |

Would you kindly look at the next entry?
Give the value of melting point reported for the following: COc1cc(C)nc(NC(=O)NS(=O)(=O)c2ccccc2-c2ccccc2)n1
199 to 202 °C

###

Can you tell me melting point for the items I'm about to list?

Illustrative cases are given below, each with its answer.
| compound | observed property | observed |
| --- | --- | --- |
| NC(=NCC(F)(F)F)Nc1ccn(CCO)n1 | melting point | 82 °C |
| N#Cc1ccc(Sc2cccc3cnccc23)c(Cl)c1 | melting point | 126 to 128 °C |
| CS(=O)(=O)CCCn1c(=N)sc2cc(OC(F)(F)F)ccc21 | melting point | 180 °C |
| CC(C)(C)c1cc2c(cc1O)OC(C(=O)O)=CO2 | melting point | 144 °C |
| Cn1cc2c(c1-c1ccccc1)C(=O)c1ccccc1C2=O | melting point | 268 to 271 °C |
| CC(C)n1c(C=O)c(-c2ccc(F)cc2)c(-c2ccc(F)cc2)c1C(=O)Nc1ccc(CC(=O)N(C)C)cc1 | melting point | 226 to 227 °C |
| COC(=O)c1cccc2c(C#N)c[nH]c12 | melting point | 212 to 214 °C |
| Cc1cc2c(cc1-n1cccc1)OC(=O)C2C (stereo unspecified) | melting point | 61 to 63 °C |

Look up melting point for the entries below, preserving their order.
1. c1cc2c3c(ccc2[nH]1)NCC3
2. COC(=O)c1ccc(Cc2cn(CC(=O)N(C)C)c3ccc(NC(=O)CC4CCCC4)cc23)c(OC)c1
3. Cc1nnc(S(=O)(=O)C(Br)(Br)Br)s1

1. 183 to 186 °C
2. 129 to 132 °C
3. 169 to 173 °C

###

Can you tell me melting point for the items I'm about to list?

Illustrative cases are given below, each with its answer.
| compound | melting point |
| --- | --- |
| COc1ccc(-c2cc(-c3ccccc3)c(-c3ccccc3)s2)cc1 | 124 to 126 °C |
| CC(C)OC(=O)c1cc(-n2c(=O)[nH]c3c(c2=O)CCCC3)ccc1Cl | 205 to 207 °C |
| COc1cc2[nH]c(N(C)Cc3cccc(OCCO)c3)nc(=O)c2c(OC)c1OC | 146 to 148 °C |
| COc1ccc(Cn2ncc3nc(O)nc(O)c32)cc1 | 288 to 292 °C |

Give the value of melting point reported for the following: COC(=O)CC(C#Cc1cccc(-c2nnc(C)o2)c1)c1ccc(OC)c(OC2CCCC2)c1 (racemic)
104 to 105 °C

###

observed property: melting point

Illustrative cases are given below, each with its answer.
| compound | melting point |
| --- | --- |
| COc1cc(CCNC(=O)[C@@H](NC(=O)OC(C)(C)C)C(C)C)ccc1OC/C=C\c1ccc(Cl)cc1 | 82 to 84 °C |
| Cc1c(SCCN)ccnc1CSc1nc2ccccc2[nH]1 | 158 to 160 °C |

Look up melting point for the entries below, preserving their order.
1. CN(C)CCOc1ccc2c(c1)OCC21C(=O)Nc2ccccc21 (stereo not given)
2. COc1cccc(NS(=O)(=O)c2ccc(N3CCNC3=O)cc2)c1
3. CCOc1cccnc1CSCCN=C(NC#N)SC

["95 to 97 °C", "179 to 181 °C", "98 to 99 °C"]
